tested on: recombinant SARS-CoV-2 Main protease (Mpro) (Severe acute respiratory syndrome coronavirus 2 (2019-nCoV) (SARS-CoV-2))
procedure text: Cov Mpro Biochemical IC50 Assay
conditions: recombinant SARS-CoV-2 Mpro 7.5 nM, fluorogenic peptide substrate 40 μM; read-out: MPro IC50
Would you mind telling me the reported IC50 of each entry?
Numeric only. Scale: nM

Exercise: Quick check: IC50 of COc1ccc(C#N)c(-c2cc3[nH]c(=O)n(-c4cncc5ccccc45)c(=O)c3s2)c1 (single isomer, unassigned) [Example 554] ?
Key: 3.88

Exercise: Record request: IC50 value, item Cc1cncc(-n2c(=O)c3sc(-c4ccccc4Cl)cc3n(CCC#N)c2=O)n1
Key: 16

Exercise: # query: IC50 of entry Cn1cnc2cncc(-n3c(=O)c4sc(-c5ccc(F)cc5Cl)cc4n(CCC#N)c3=O)c21
Key: 22.3

Exercise: Any idea what its IC50 is? The molecule is COc1cc(-c2cc3c(s2)c(=O)n(-c2cncc4nnn(C5CC5)c24)c(=O)n3CC2(C#N)CC2)c(Cl)cc1F
Key: 4.35
